Test description: activity coefficient (dimensionless); of the first substance listed, at infinite dilution; xn = mol fraction of the nth substance listed
Experimental setup: 393 K; 101.3 kPa; Liquid; Open tubular Wall-Coated Column Chromatography; x1 = 0
Measured endpoint: activity coefficient

stdin: # query: activity coefficient of entry CCC(C)(C)O [2-methylbutan-2-ol] + CC(=O)[O-].CCn1cc[n+](C)c1
stdout: 0.42

stdin: Can you check C[N+](=O)[O-] [nitromethane] + CC(=O)[O-].CCn1cc[n+](C)c1 next?
stdout: 0.46

stdin: Also, CC(C)(C)O [2-methylpropan-2-ol] + CC(=O)[O-].CCn1cc[n+](C)c1 please.
stdout: 0.3

stdin: COCCOC [1,2-dimethoxyethane] + CC(=O)[O-].CCn1cc[n+](C)c1 , same question.
stdout: 4.81
